For each of the molecules below, state its growth.
Test system: SF-539 CNS
Assay: NCI-60 one-dose screen, 48 h (100 = growth as untreated, 0 = no growth, -100 = all killed)
Conditions: 10 µM unless noted
The panel holds about 83,000 compounds, 20% with a hit somewhere; the sample as a whole holds those more often.
Numbers only, in %.

1) COC(=O)c1c2c(c(C)[n+]([O-])c1C)C(=O)C=C(NCc1cccc(OC)c1)C2=O	-92.3
2) O=C(N/N=C/c1ccc2c(c1)OCO2)c1cnn2c1NC(c1ccccc1)C2 (stereo not given)	59.1
3) O=C(COc1cccc(/C=C2\COc3ccccc3C2=O)c1)c1ccccc1	90.4
4) COC(=O)c1cc(-c2ccc(C)cc2)n(C(=O)CSc2nc3sc(C(N)=O)c(C)c3c(=O)n2Cc2ccccc2)n1	104

The following molecules each have a reported value; give each one's growth.
1. Cn1c(=O)c2c(-c3ccccc3F)n(-c3ccc4c(c3)OCO4)cc2n(C)c1=O
2. Cc1ccc2nc(NC(=O)CSC(=S)N3CCN(C)CC3)sc2c1
3. Nc1c(Br)cc(Br)cc1-c1n[nH]c(=O)[nH]c1=O
4. CCCCOC(=O)C1OC(Oc2ccc3c(C)cc(=O)oc3c2)[C@@H](OC(C)=O)C(OC(C)=O)C1OC(C)=O (stereo not given in full)
5. O=C1c2ccccc2C(=O)c2c(Nc3ccc(CCO)cc3)ccc(O)c21
6. O=C(O)C[C@H](O)C[C@H](O)/C=C/c1c(C2CC2)nc2ccccc2c1-c1ccc(F)cc1
7. O=c1c2cc(F)ccc2oc2c(NCCNCCO)nc3ccccc3c12
8. Fc1ccccc1Nc1ccc2nnc(-c3ccncc3)n2n1

1: 92.7; 2: 100; 3: 92.5; 4: 96; 5: 84.8; 6: 81.2; 7: 46.3; 8: 106

The following molecules each have a reported value; give each one's growth.
1. CN([N-]C(=O)CC(=O)[N-]N(C)C(=S)c1ccccc1)C(=S)c1ccccc1.[Cu+2]
2. COc1cc(OCc2cccc(-c3ccc(C(O)c4nccs4)cc3)c2C)cc(OC)c1C=O (stereo not given)
3. Cn1c2c(cc(S(=O)(=O)c3ccccc3)c1=O)CCc1c-2cnn1-c1ccccc1Cl

1. -69.3
2. 69.4
3. 90.2

* * *

Test system: 786-0 renal
Assay: NCI-60 one-dose screen, 48 h (100 = growth as untreated, 0 = no growth, -100 = all killed)
Details: 10 µM unless noted
Compounds without any hit were thinned out: in the full panel of roughly 83,000, 20% have a hit.
For each of the compounds below, state its growth.
Numbers only, in %.

Below: 2 compounds and their reported growth.
1) O=C(Nc1ccc(F)cc1)c1ccc(C(=O)Nc2ccc(F)cc2)cc1	98.8
2) CCC(=O)Nc1nnc(Cc2ccc(OC)c(OC)c2)s1	9.21

// output growth; input O=[N+]([O-])c1ccc(O)c2ncccc12 ; system 786-0 renal
66.5

* * *

System: NCI-H522 lung
Experiment: NCI-60 one-dose screen, 48 h (100 = growth as untreated, 0 = no growth, -100 = all killed)
Conditions: 10 µM
This is part of a sample that, as a whole, favours compounds with a hit. Of some 83,000 tested, about 20% had one in any assay.
For each of the compounds below, state its growth.
Numbers only, in %.

The following compounds each have a reported value; give each one's growth.
1. CC(=O)N(CC(O)CO)c1c(I)c(C(=O)NCCO)c(I)c(C(=O)NCC(O)CO)c1I (stereo unspecified)
2. COc1ccc(OC)c(/C=C2\Oc3cc(O)ccc3C2=O)c1
3. COc1ccc(/C=C2\CN(Cc3cn(CCCNc4ccnc5cc(Cl)ccc45)nn3)C/C(=C\c3ccc(OC)c(OC)c3)C2=O)cc1OC
4. COc1cc(/C=N/NC(=O)c2cnn3c2NC(c2ccccc2)C3)ccc1OC1CCCC1 (stereo unspecified)
5. O=C(Nc1ccccc1O)c1ccc(NS(=O)(=O)c2cccc3cccnc23)cc1

1. 97.8
2. 77.6
3. 0.468
4. 11.7
5. 37.7

The following compounds each have a reported value; give each one's growth.
1. CCOc1ccc(/C=N\N2CCCCCC2)cc1OCC
2. COc1cc2oc(-c3ccc(O)cc3)cc(=O)c2c(O)c1I
3. CCCCc1ccc(C(O)(CCN2CC3CCC(CC3)C2)c2ccccc2)cc1 (stereo unspecified)

1. 97.8
2. 86.2
3. 84.2

The following compounds each have a reported value; give each one's growth.
1. O=C(NCc1cccnc1)c1ccc([N+](=O)[O-])o1
2. O/N=C/c1cccs1
3. COc1ccc(-c2nc3sc(C)cn3c2/C=C/C(=O)c2cc(OC)c(OC)c(OC)c2)cc1
4. COc1ccc(OC2=CC(=O)c3ccc(C)nc3C2=O)cc1

[-66.5, 106, 37.8, 55.2]

The following compounds each have a reported value; give each one's growth.
1. O=C(N/N=C(\CS(=O)(=O)c1ccccc1)c1cc2ccccc2oc1=O)c1ccccc1
2. COc1cccc2c(=O)c3c(sc12)c(NCCN(C)C)nc1ccccc13

1. 100
2. 29.1

* * *

Test system: SN12C renal
Assay: NCI-60 one-dose screen, 48 h
Details: 10 µM unless noted
Compounds without any hit were thinned out: in the full panel of roughly 83,000, 20% have a hit. The source made the active and inactive calls. How the source made its calls: active means growth percent below 10; inactive means the rest.
# output must be one of label 1 (active), label 0 (inactive)

1) C[C@H]1C(=O)C23CCC1C[C@@]21O[C@@H]2C(C)(C)C=CC(=O)C23COC1=O	label 0
2) O=C(CCCCCCC(=O)Nc1ccc2c(c1)/C(=C/c1ccc[nH]1)C(=O)N2)NO	label 0
3) CN1CCn2c(c(Sc3ccc(C(=O)NO)cc3)c3ccccc32)C1=O	label 1
4) O=C1c2ccccc2C(=O)c2c(Nc3ccc(CCO)cc3)ccc(O)c21	label 0
5) O=C1C(OCCOc2ccccc2)=C(OCCOc2ccccc2)C(=O)c2ccccc21	label 0

Name the outcome recorded for CCCCCCCCCCCCSC1=CC(=O)C=CC1=O in the assay.
label 0

Name the outcome recorded for COc1ccc(/C=N\N2CCOCC2)cc1OC1CCCC1 in the assay.
label 0

Name the outcome recorded for O=C(Nc1ccccc1O)c1ccc(NS(=O)(=O)c2cccc3cccnc23)cc1 in the assay.
label 0

Name the outcome recorded for COc1ccc(/C=N/NC(=O)c2cnn3c2NC(c2ccccc2)C3)cc1OC1CCCC1 (stereo not given) in the assay.
label 0

Name the outcome recorded for COc1ccccc1-n1c(SCc2cc(OC)c(OC)c(OC)c2)nc2ccc(Cl)cc2c1=O in the assay.
label 0

* * *

Test system: EKVX NSCLC
Assay: NCI-60 one-dose screen, 48 h
Details: 10 µM unless noted
About 83,000 compounds went through this panel and 20% of them were active in at least one assay; those are over-represented in the sample as a whole. Calls of active or inactive are those of the source. The calls were made as follows: active = growth percent below 10; inactive = the rest.
# output must be one of active, inactive

1) COc1ccc(OC)c(C2C(C#N)=C(N)Oc3cc(O)ccc32)c1 (configuration not stated)	inactive

Name the outcome recorded for COc1cc(-c2ccc3cc(OC)c(OC)c(OC)c3c2)cc(OC)c1OC in the assay.
inactive

Name the outcome recorded for COC(=O)c1c2c(c(C)[n+]([O-])c1C)C(=O)C=C(NCc1cccc(OC)c1)C2=O in the assay.
active

Name the outcome recorded for O=c1[nH]c(=O)n(Cc2ccc(F)cc2)cc1F in the assay.
inactive

* * *

Tested on: UACC-62 melanoma
Experiment: NCI-60 one-dose screen, 48 h (100 = growth as untreated, 0 = no growth, -100 = all killed)
Conditions: 10 µM unless noted
About 83,000 compounds went through this panel and 20% of them were active in at least one assay; those are over-represented in the sample as a whole.
recorded-endpoint: growth (%)
One number for each entry, in %.

Below: 4 molecules and their reported growth.
1. COc1cc2oc(-c3ccc(O)cc3)cc(=O)c2c(O)c1I	102
2. Clc1ccc(C2=Nc3cccc4cccc(c34)N2)cc1Cl	109
3. CCN(C(=O)c1ccc2c3c(cccc13)C=C2)c1ccccc1	80.3
4. O=c1c2c(=NCCN3CCCC3)cc3c(=O)n(CCCN4CCOCC4)c(=O)c4c(-c5ccc(CN6CCCC6)cc5)cc(c(O)n1CCCN1CCOCC1)c2c4-3	-73.2

The following molecules each have a reported value; give each one's growth.
1. CN1CCc2c(Sc3ccc(C(=O)NO)cc3)c3ccccc3n2C1
2. CCCOC(=O)c1ccc2c(c1)[N+](=O)C(C(=O)c1ccccc1)=C(C(F)(F)F)[N+]2=O
3. Cc1ccc(N(CSc2ccc(Cl)cc2)CSc2ccc(Cl)cc2)cc1

[38.9, -92.4, 60]

The following molecules each have a reported value; give each one's growth.
1. O=c1[nH]c(=S)[nH]c(=O)n1Cc1cccc2ccccc12
2. C=C(C)CCCC(C)CC#N (stereo not given)
3. COc1ccc(/C=N/NC(=O)c2cnn3c2NC(c2ccccc2)C3)cc1OC1CCCC1 (stereo not given)

1. 89.7
2. 111
3. 83
